B1: Azoarcus group I ribozyme (parent)
chain: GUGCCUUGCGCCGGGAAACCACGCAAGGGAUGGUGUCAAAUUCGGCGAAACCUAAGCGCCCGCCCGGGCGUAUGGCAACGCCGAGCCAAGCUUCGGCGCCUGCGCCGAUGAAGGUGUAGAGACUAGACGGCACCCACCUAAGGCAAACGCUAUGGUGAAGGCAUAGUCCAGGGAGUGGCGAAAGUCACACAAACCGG

Variants of: B1
Assay: reverse-splicing fitness (ratio to wild type); higher = more active; in vitro selection; Mg2+ level not given
For each entry below, report its reverse-splicing fitness value.
Enter the number alone.

# reverse-splicing fitness lookup, item C82A A111U A120U A145U C150A C169A U176C
0.00269

Again, but for C82G A111U A120C C169A U176A
0.0193

Can you check A111C A145C C150A U176G next?
0.0323

Request: C82A A111U A145C
0.28

Then what about the variant C82A A111G A120C A145U C150G C169A ?
0.00895

Similarly, C82A A111U A120U C150U C169G ?
0.00623

Item: A111U A120U C150U
0.374

Entry to check: C82A A111G A120U A145G C150U C169U U176G
0.00242

Now consider C82U A120G A145C C150U C169G U176G and answer again.
0.0041

Lookup C82U A111U A120C C150A C169G U176G
0.00669

Try C82U A111U A120C A145C C150G C169A next.
0.00832
